- Tested on: P388 leukemia ip, CD2F1 mice, survival T/C
- assay_info: NCI In Vivo Anticancer Drug Screen. Data for tumor model P388 Leukemia (intraperitoneal) in CD2F1 (CDF1) mice
- cond: endpoint: median survival time; dose: 25.0 mg/kg/injection; schedule: Q01DX009 (ip); vehicle: other
Inconclusive results and toxic doses are left out. How the source made its calls: active means survival T/C of 150% or more; inactive means T/C below 125% in these data.
Classes used: active, inactive

> print(dat)
                                   compound  assigned.category
1  COc1ccc(OC)c(CC(CC(=O)O)C(C)=O)c1 (stereo unspecified)           inactive
2                 N#C/C(=N\Nc1ccccc1)C(N)=S           inactive
3  COc1cc2c(cc1OC)C(Cc1cc(OC)c(OC)cc1[N+](=O)[O-])=[N+](C)CC2           inactive
4  COC1CC(C)(O)Cc2cc3c(c(O)c21)C(=O)c1c(O)cc2c(c1C3=O)OC1OC2(C)C(O)C(N(C)C)C1O (stereo unspecified)             active
5    O=C(C/[N+]([O-])=C/c1ccccc1)OCc1ccccc1           inactive
6  CCSC(SCC)C(NC(C)=O)C(OC(C)=O)C(OC(C)=O)C(COC(C)=O)OC(C)=O (stereo unspecified)           inactive
